biological target: EGFR L858R/T790M/C797S (Homo sapiens, UniProt P00533, C797S/L858R/T790M); assay: Biochemical EGFR kinase inhibition assay (Lance Ultra TR-FRET), triple mutant L858R/T790M/C797S; details: IC50 L858R/T790M/C797S (nM), 100 μM ATP
Sequence (P00533 25-1210 T790M/C797S/L858R): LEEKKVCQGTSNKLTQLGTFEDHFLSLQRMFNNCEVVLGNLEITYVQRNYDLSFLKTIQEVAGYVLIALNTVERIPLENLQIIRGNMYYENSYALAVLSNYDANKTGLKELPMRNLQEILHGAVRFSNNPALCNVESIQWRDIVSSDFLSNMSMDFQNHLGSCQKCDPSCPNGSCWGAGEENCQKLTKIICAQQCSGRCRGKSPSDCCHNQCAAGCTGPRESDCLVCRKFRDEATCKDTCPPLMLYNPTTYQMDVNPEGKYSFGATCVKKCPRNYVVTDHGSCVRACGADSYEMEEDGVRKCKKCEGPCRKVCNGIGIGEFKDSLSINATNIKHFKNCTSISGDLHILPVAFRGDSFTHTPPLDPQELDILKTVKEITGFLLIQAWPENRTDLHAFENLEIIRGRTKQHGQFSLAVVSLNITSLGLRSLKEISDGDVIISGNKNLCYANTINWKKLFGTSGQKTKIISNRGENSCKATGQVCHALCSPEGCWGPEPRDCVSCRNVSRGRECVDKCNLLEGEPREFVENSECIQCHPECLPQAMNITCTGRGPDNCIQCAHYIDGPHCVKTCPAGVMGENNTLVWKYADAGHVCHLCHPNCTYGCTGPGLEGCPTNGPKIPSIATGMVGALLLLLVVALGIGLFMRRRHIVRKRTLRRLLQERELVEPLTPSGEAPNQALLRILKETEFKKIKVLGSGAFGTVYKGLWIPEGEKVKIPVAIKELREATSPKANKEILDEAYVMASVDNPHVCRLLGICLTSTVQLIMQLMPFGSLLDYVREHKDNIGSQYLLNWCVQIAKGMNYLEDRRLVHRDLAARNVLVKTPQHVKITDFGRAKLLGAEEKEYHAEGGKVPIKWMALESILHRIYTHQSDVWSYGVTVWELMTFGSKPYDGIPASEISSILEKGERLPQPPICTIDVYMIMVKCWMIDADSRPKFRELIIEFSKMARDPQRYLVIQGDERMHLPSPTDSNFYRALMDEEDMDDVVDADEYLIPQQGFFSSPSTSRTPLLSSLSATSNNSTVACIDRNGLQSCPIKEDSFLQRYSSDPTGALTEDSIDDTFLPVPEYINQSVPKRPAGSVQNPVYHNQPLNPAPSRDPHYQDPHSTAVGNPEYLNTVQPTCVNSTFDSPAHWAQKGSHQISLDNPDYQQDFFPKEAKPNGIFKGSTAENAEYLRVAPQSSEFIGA
# label = condition met if IC50 < 0.9 nM else condition not met

# molecule, testedTarget, classification
rows = [
    ("O=S(=O)(C1CC1)n1cc(-c2nccc(Nc3cc(N[C@H]4CC[C@@H](O)CC4)c(C#CC4(O)CCOCC4)cn3)n2)cn1", "EGFR L858R/T790M/C797S (Homo sapiens, UniProt P00533, C797S/L858R/T790M)", "condition not met"),
    ("CC1(O)CCN(c2cc(Nc3ccnc(-c4cnn(S(=O)(=O)C5CC5)c4)n3)ncc2C#CC2CCN(C(=O)C(F)(F)F)C2)CC1 (stereo not shown)", "EGFR L858R/T790M/C797S (Homo sapiens, UniProt P00533, C797S/L858R/T790M)", "condition met"),
    ("O=S(=O)(C1CC1)n1cc(-c2nccc(Nc3cc(N[C@H]4CC[C@@H](O)CC4)c(C#Cc4ccsc4)cn3)n2)cn1", "EGFR L858R/T790M/C797S (Homo sapiens, UniProt P00533, C797S/L858R/T790M)", "condition not met"),
    ("O=S(=O)(C1CC1)N1CCC(C#Cc2cnc(Nc3ccnc(-c4cnn(S(=O)(=O)C5CC5)c4)n3)cc2N[C@H]2CC[C@@H](O)CC2)CC1", "EGFR L858R/T790M/C797S (Homo sapiens, UniProt P00533, C797S/L858R/T790M)", "condition not met"),
    ("Cn1cc(C#Cc2cnc(Nc3ccnc(Nc4ccccc4S(C)(=O)=O)n3)cc2N2CCC(C)(CO)CC2)cn1", "EGFR L858R/T790M/C797S (Homo sapiens, UniProt P00533, C797S/L858R/T790M)", "condition not met"),
    ("COC1CCN(c2cc(Nc3ccnc(-c4cnn(S(=O)(=O)C5CC5)c4)n3)ncc2C#Cc2cnn(C)c2)CC1", "EGFR L858R/T790M/C797S (Homo sapiens, UniProt P00533, C797S/L858R/T790M)", "condition not met"),
    ("CC1(CO)CCN(c2cc(Nc3ccnc(-c4cnn(S(=O)(=O)C5CC5)c4)n3)ncc2C#CC2(O)CCC2)CC1", "EGFR L858R/T790M/C797S (Homo sapiens, UniProt P00533, C797S/L858R/T790M)", "condition not met"),
    ("CN(C)CC1(C)CCN(c2cc(Nc3ccnc(-c4cnn(S(=O)(=O)C5CC5)c4)n3)ncc2C#Cc2cnn(C3CC3)c2)CC1", "EGFR L858R/T790M/C797S (Homo sapiens, UniProt P00533, C797S/L858R/T790M)", "condition met"),
    ("CN(C)CCCn1cc(C#Cc2cnc(Nc3ccnc(-c4cnn(S(=O)(=O)C5CC5)c4)n3)cc2N2CCC3(CC2)CC(C)(O)C3)cn1", "EGFR L858R/T790M/C797S (Homo sapiens, UniProt P00533, C797S/L858R/T790M)", "condition met"),
    ("CC1(CO)CCN(c2cc(Nc3ccnc(-c4cnn(S(=O)(=O)C5CC5)c4)n3)ncc2C#Cc2ccccc2F)CC1", "EGFR L858R/T790M/C797S (Homo sapiens, UniProt P00533, C797S/L858R/T790M)", "condition not met"),
    ("CC1(CO)CCN(c2cc(Nc3ccnc(-c4cnn(S(=O)(=O)C5CC5)c4)n3)ncc2C#Cc2cccnc2)CC1", "EGFR L858R/T790M/C797S (Homo sapiens, UniProt P00533, C797S/L858R/T790M)", "condition met"),
]
